Target: Anti-FLAG mAb
Assay: Competitive BRET binding assay for FLAG peptide, antibody-12/36-RLuc8 conjugate, Fluorostar plate-reader
Details: mAb-12/36-RLuc8 50 nM, 200 nM FLAG-GFP^2, Fluorostar
Measured property: EC50 (nM)

>>> numeric_readout("DYKDDDDK [FLAG peptide]")
274
